- System: Serratia fonticola 8001047 (Wild-type)
- run.description: Growth and enzymatic activity on ChromID CPS-based selective media
- Assay type: cell-based
- experimental.parameters: 18 h at 37° C.; cefpodoxime 4 mg/l (T), cefepime 0.25 mg/l (A), cefamandole 3 mg/l (B), cefuroxime 3 mg/l (C), each with 300 mg/l cloxacillin

molecule	study.target	Growth
CO/N=C(\C(=O)N[C@@H]1C(=O)N2C(C(=O)[O-])=C(C[N+]3(C)CCCC3)CS[C@H]12)c1csc(N)n1 [Cefepime, cefepime]	Serratia fonticola 8001047 (Wild-type)	−
Cn1nnnc1SCC1=C(C(=O)O)N2C(=O)[C@@H](NC(=O)[C@H](O)c3ccccc3)[C@H]2SC1	Serratia fonticola 8001047 (Wild-type)	+
COCC1=C(C(=O)O)N2C(=O)[C@@H](NC(=O)/C(=N\OC)c3csc(N)n3)[C@H]2SC1	Serratia fonticola 8001047 (Wild-type)	+
CO/N=C(\C(=O)N[C@@H]1C(=O)N2C(C(=O)O)=C(COC(N)=O)CS[C@H]12)c1ccco1	Serratia fonticola 8001047 (Wild-type)	++

----------
- System: Escherichia coli 0505101 (ESBL)
- run.description: Growth and enzymatic activity on ChromID CPS-based selective media
- Type: cell-based
- experimental.parameters: 18 h at 37° C.; cefpodoxime 4 mg/l (T), cefepime 0.25 mg/l (A), cefamandole 3 mg/l (B), cefuroxime 3 mg/l (C), each with 300 mg/l cloxacillin

molecule	Growth
Cn1nnnc1SCC1=C(C(=O)O)N2C(=O)[C@@H](NC(=O)[C@H](O)c3ccccc3)[C@H]2SC1	++
COCC1=C(C(=O)O)N2C(=O)[C@@H](NC(=O)/C(=N\OC)c3csc(N)n3)[C@H]2SC1	+
CO/N=C(\C(=O)N[C@@H]1C(=O)N2C(C(=O)[O-])=C(C[N+]3(C)CCCC3)CS[C@H]12)c1csc(N)n1 [Cefepime, cefepime]	++
CO/N=C(\C(=O)N[C@@H]1C(=O)N2C(C(=O)O)=C(COC(N)=O)CS[C@H]12)c1ccco1	++

----------
- Tested on: Proteus mirabilis 0105109 (HL case)
- run.description: Growth and enzymatic activity on ChromID CPS-based selective media
- Type: cell-based
- experimental.parameters: 24 h at 37° C.; cefpodoxime 4 mg/l (T), cefepime 0.25 mg/l (A), cefamandole 3 mg/l (B), cefuroxime 3 mg/l (C), each with 300 mg/l cloxacillin

compound	study.target	Growth
COCC1=C(C(=O)O)N2C(=O)[C@@H](NC(=O)/C(=N\OC)c3csc(N)n3)[C@H]2SC1	Proteus mirabilis 0105109 (HL case)	−
Cn1nnnc1SCC1=C(C(=O)O)N2C(=O)[C@@H](NC(=O)[C@H](O)c3ccccc3)[C@H]2SC1	Proteus mirabilis 0105109 (HL case)	−
CO/N=C(\C(=O)N[C@@H]1C(=O)N2C(C(=O)O)=C(COC(N)=O)CS[C@H]12)c1ccco1	Proteus mirabilis 0105109 (HL case)	+
CO/N=C(\C(=O)N[C@@H]1C(=O)N2C(C(=O)[O-])=C(C[N+]3(C)CCCC3)CS[C@H]12)c1csc(N)n1 [Cefepime, cefepime]	Proteus mirabilis 0105109 (HL case)	−

----------
- Tested on: Enterobacter spp 9306069 (HL case)
- run.description: Growth and enzymatic activity on ChromID CPS-based selective media
- Type: cell-based
- Set-up: key to the marks not given beside the values
- experimental.parameters: 18 h at 37° C.; cefpodoxime 4 mg/l (T), cefepime 0.25 mg/l (A), cefamandole 3 mg/l (B), cefuroxime 3 mg/l (C), each with 300 mg/l cloxacillin
measurement.kind: Enz act.

molecule	measured
CO/N=C(\C(=O)N[C@@H]1C(=O)N2C(C(=O)[O-])=C(C[N+]3(C)CCCC3)CS[C@H]12)c1csc(N)n1 [Cefepime, cefepime]	++
COCC1=C(C(=O)O)N2C(=O)[C@@H](NC(=O)/C(=N\OC)c3csc(N)n3)[C@H]2SC1	++
CO/N=C(\C(=O)N[C@@H]1C(=O)N2C(C(=O)O)=C(COC(N)=O)CS[C@H]12)c1ccco1	++
Cn1nnnc1SCC1=C(C(=O)O)N2C(=O)[C@@H](NC(=O)[C@H](O)c3ccccc3)[C@H]2SC1	++
